EXPERIMENTAL_TARGET: MERTK (UniProt Q12866)
Sequence (Q12866 whole entry, looked up): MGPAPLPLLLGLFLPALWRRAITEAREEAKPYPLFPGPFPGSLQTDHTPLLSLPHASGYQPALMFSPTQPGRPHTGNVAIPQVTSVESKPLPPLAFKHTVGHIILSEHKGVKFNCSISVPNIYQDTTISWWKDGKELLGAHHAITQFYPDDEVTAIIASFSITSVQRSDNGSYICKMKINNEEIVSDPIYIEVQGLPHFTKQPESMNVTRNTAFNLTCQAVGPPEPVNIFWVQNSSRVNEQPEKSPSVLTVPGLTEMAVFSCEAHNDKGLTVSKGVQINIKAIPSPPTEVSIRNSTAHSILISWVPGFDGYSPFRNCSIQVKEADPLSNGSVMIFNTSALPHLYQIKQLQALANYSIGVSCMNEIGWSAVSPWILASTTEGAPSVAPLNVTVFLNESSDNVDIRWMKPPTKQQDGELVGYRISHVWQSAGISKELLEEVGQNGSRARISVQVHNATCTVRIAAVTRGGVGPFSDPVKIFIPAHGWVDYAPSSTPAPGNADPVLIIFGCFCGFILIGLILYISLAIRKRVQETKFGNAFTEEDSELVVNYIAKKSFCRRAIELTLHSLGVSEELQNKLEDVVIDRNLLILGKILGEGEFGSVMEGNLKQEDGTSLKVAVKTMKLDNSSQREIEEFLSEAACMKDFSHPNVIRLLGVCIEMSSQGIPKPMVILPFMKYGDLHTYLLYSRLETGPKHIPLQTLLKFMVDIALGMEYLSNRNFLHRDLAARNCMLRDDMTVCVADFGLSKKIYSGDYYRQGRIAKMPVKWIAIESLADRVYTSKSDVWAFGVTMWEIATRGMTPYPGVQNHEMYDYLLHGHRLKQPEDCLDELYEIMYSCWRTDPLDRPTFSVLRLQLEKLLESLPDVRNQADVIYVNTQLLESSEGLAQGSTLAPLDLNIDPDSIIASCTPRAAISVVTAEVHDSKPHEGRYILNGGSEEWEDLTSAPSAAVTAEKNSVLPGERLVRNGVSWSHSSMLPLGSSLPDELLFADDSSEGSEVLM
TEST_DESCRIPTION: phosphorylation enrichment, bacterial display (enrichment ratio); higher = better substrate or ligand; peptides without Tyr show the background;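 note: 11-residue human phosphosite peptides and single-mutation variants displayed on the E. coli surface, counted by deep sequencing, each peptide's frequency after selection divided by its frequency in the unselected input library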;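 note: frequency after pTyr selection over input frequency; kinase dosed for 20-30% of maximal phosphorylation in three min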
ASSAY_ENDPOINT: phosphorylation enrichment

Example cases with answers are listed next.
[[record]]
biosequence = "TSSAVYMNLAS [GATAD2B_Y317_I316V]"
experimental_target = "MERTK (UniProt Q12866)"
assay_endpoint = "phosphorylation enrichment"
readout_value = 3.69

[[record]]
biosequence = "PLKFLYPNIDR [STAT1_Y668_K673R_YF]"
experimental_target = "MERTK (UniProt Q12866)"
assay_endpoint = "phosphorylation enrichment"
readout_value = 0.519

[[record]]
biosequence = "NMRSTYAKLAA [SEC22B_Y193_H190R]"
experimental_target = "MERTK (UniProt Q12866)"
assay_endpoint = "phosphorylation enrichment"
readout_value = 0.49

[[record]]
biosequence = "FRSSLYSLMET [MYO5C_Y633_L634S]"
experimental_target = "MERTK (UniProt Q12866)"
assay_endpoint = "phosphorylation enrichment"
readout_value = 12.4

[[record]]
biosequence = "TEALYYTDDTA [ADPRS_Y75]"
experimental_target = "MERTK (UniProt Q12866)"
assay_endpoint = "phosphorylation enrichment"
readout_value = 4.21

[[record]]
biosequence = "VTRAKYFIRDE [GNAS_Y339]"
experimental_target = "MERTK (UniProt Q12866)"
assay_endpoint = "phosphorylation enrichment"
readout_value = 0.405

[[record]]
biosequence = "QRCYVYYYSYL [PTEN_Y176_R173C]"
experimental_target = "MERTK (UniProt Q12866)"
assay_endpoint = "phosphorylation enrichment"
readout_value = 2.61

[[record]]
biosequence = "VRSNHYDPEED [TJP1_Y1346]"
experimental_target = "MERTK (UniProt Q12866)"
assay_endpoint = "phosphorylation enrichment"
readout_value = 0.526

[[record]]
biosequence = "HLPAGYIIPLQ [GAA_Y822_R819P]"
experimental_target = "MERTK (UniProt Q12866)"
assay_endpoint = "phosphorylation enrichment"
readout_value = 0.542

[[record]]
biosequence = "PSDLLYILDIQ [ITGA2B_Y845]"
experimental_target = "MERTK (UniProt Q12866)"
assay_endpoint = "phosphorylation enrichment"
readout_value = 2.82


Exercise: Consider the sequence GMAHNYRNSSQ [AASS_Y188] and give its measured phosphorylation enrichment.
Key: 0.418

Exercise: Another sequence to look at: GDFFRSLAEVA [YWHAG_Y133_Y133S_YF]
Key: 0.357

Exercise: Check NRSSLYLVAGP [KIAA1614_Y1083] too.
Key: 1.09

Exercise: Also, VNCHQYDGLVG [ATP2A2_Y407_E412G] please.
Key: 0.451

Exercise: Note, next up: TEALFYTDDPA [ADPRS_Y75_T79P_YF]
Key: 0.699

Exercise: Cool, now RAILNYIASKY [GSTA3_Y74]
Key: 0.466

Exercise: For CEETFYTMKMN [MASP2_Y401_V405M] then?
Key: 0.829

Exercise: Try this sequence next: NGPDVYVLPVT [AATK_Y93_L97V]
Key: 2.73

Exercise: # iterate: EVDELYREAPI [MYL12B_Y143]
Key: 0.598

Exercise: SEELHYYVQNH [UQCRC2_Y207_F208Y] , same question.
Key: 2.86

Exercise: Next record, please: KSAAIYNPVIY [RHO_Y301]
Key: 3.42

Exercise: Continue with CLAKMYFSAVE [CP_Y539_D544E_YF]
Key: 0.514

Exercise: Now the sequence KYLENYLNCLL [PLD2_Y169_R172C]
Key: 0.52

Exercise: Next sequence up: TINPIHEHVGF [CHN1_Y143_Y143H_YF]
Key: 0.328

Exercise: Okay, and RPSELYFSKIS [SMG1_Y2253_G2258S_YF] ?
Key: 0.886

Exercise: Also check GGEEFYVHFVG [KAT8_Y90_R86G_YF]
Key: 0.433
